# assay.procedure: Drug uptake in CD1 mouse plasma at 2 umol, ip after 6 hrs by HPLC/MS
# Assay type: ADME, organism-based
# test.parameters: read-out: Drug uptake
Exercise: state measured concentration at 6 h for each of the molecules provided.
Respond numerically; units are µM and should not be typed.

stdin: Look up concentration at 6 h of CC1(C)CC[C@]2(C(=O)OC(=O)[C@]34CCC(C)(C)C[C@H]3[C@H]3C(=O)C=C5[C@@]6(C)C=C(C#N)C(=O)C(C)(C)[C@@H]6CC[C@@]5(C)[C@]3(C)CC4)CC[C@]3(C)[C@H](C(=O)C=C4[C@@]5(C)C=C(C#N)C(=O)C(C)(C)[C@@H]5CC[C@]43C)[C@@H]2C1 and report it.
stdout: 43

stdin: Look up concentration at 6 h of CC1(C)CC[C@]2(C(=O)O)CC[C@]3(C)[C@H](C(=O)C=C4[C@@]5(C)C=C(C#N)C(=O)C(C)(C)[C@@H]5CC[C@]43C)[C@@H]2C1 [BARDOXOLONE] and report it.
stdout: 2
